# Tested on: SNB-19
# Test: NCI tumour cell line growth inhibition, 48 h
Calls of active or inactive are those of the source. No stated cut-off is given here; in the data, active = GI50 up to about 1.1 µM and inactive = higher.
Measurement Name: GI50

> print(dat)
                                   compound  measurement.name             reported
1  CC(C)Cc1ccc(C(C)CC2=CCC(CN(C)C)C2=O)cc1 (stereo not drawn)              GI50   15.3 µM (inactive)
2                       Cc1cc2ccc(N)nc2nc1O              GI50  > 100 µM (inactive)
3    O=C1c2cc([N+](=O)[O-])sc2C(=O)c2ccsc21              GI50   1.89 µM (inactive)
4             COc1nc(N(C)C)nc2c1[n+](C)cn2C              GI50   25.1 µM (inactive)
5  O=C1C(NCCc2cc(Cl)c(O)c(Cl)c2)=CC(=O)c2[nH]cnc21              GI50   33.7 µM (inactive)
6  O=C(c1ccc(Cl)cc1)N(C(=S)OC12CC3CC(CC(C3)C1)C2)c1ccccc1              GI50   29.6 µM (inactive)
7  COc1ccc2nc3c([N+](=O)[O-])ccc4c3c(c2c1)N(CCCN(C)C)C(=S)N4CCCN(C)C              GI50   9.71 µM (inactive)
8                    Clc1nc(Cl)c(Cl)c(Cl)n1              GI50   22.3 µM (inactive)

* * *

Catalogue of GI50 values
# Test system: SNB-75
# Test: NCI tumour cell line growth inhibition, 48 h
Calls of active or inactive are those of the source. Cut-off read from the data, not from the text of the source: active = GI50 up to about 1.1 µM and inactive = higher.
Measurement Name: GI50

> print(dat)
                                    molecule  measurement.name             reported
 1  O=C1/C(=C/c2ccccc2)CN(C(=O)C(F)(F)F)C/C1=C\c1ccccc1              GI50   6.58 µM (inactive)
 2  CCc1ncnc2cc(OCC3CO3)c(OC)cc12 (stereo not given)              GI50   17.3 µM (inactive)
 3  NC1=NS(=O)(=O)Nc2nc(-c3ccc(Cl)cc3)[nH]c21              GI50   62.7 µM (inactive)
 4  Cc1c(C)c([N+](=O)[O-])c2c(c1N)C(=O)c1ccccc1C2=O              GI50  > 100 µM (inactive)
 5                     Cc1csc2c1-n1cccc1C2=O              GI50  > 100 µM (inactive)
 6          CC1=CC(=O)/C(=C/NC(=O)NN)C(=O)O1              GI50   45.4 µM (inactive)
 7  O=C(O)CN1CCCC(Cc2c[nH]c3ccccc23)C1 (stereo not given)              GI50  > 100 µM (inactive)
 8                       Cc1cc2ccc(N)nc2nc1O              GI50  > 100 µM (inactive)
 9           O=C1/C(=C/c2ccccc2)CCCc2ccccc21              GI50   35.3 µM (inactive)
10     N#C/C(=C\c1ccc2ccccc2c1)C(=O)c1ccccc1              GI50   93.1 µM (inactive)
11  Cc1c2n(c(=O)[nH]c1=O)C1OC(CO)C(O2)C1N=[N+]=[N-] (stereo not given)              GI50  > 100 µM (inactive)
12  CC(=O)SSC1(Cl)C(C)(C)C(Cl)(SSC(C)=O)C1(C)C (stereo not given)              GI50   30.4 µM (inactive)
13  Cc1cccc(-c2cccc(COCc3cccc(-c4cccc(CO)n4)n3)n2)n1              GI50   > 50 µM (inactive)
14  C=CCC(C(=O)Nc1cccc2nc[nH]c12)C(=O)OCC (stereo not given)              GI50  > 100 µM (inactive)
15             CC[N+](CC)(CCNCC(N)=O)CC(N)=O              GI50   > 10 µM (inactive)
16  CC(=O)N/C(=C\c1ccc(/C=C(\NC(C)=O)C2=NC3C(=O)c4ccccc4C(=O)C3N2)cc1)C1=NC2C(=O)c3ccccc3C(=O)C2N1 (stereo not given)              GI50   6.98 µM (inactive)
17  COc1cc(NC(C)=O)ccc1C(=O)NN1C(=O)/C(=C/c2ccco2)N=C1c1ccccc1              GI50   > 50 µM (inactive)
18  CC(C)(C)OC(=O)NC(Cc1ccccc1)OCc1ccccc1 (stereo not given)              GI50   12.2 µM (inactive)
19                 O=c1c2c(c1=O)-c1ccccc1CN2              GI50  > 100 µM (inactive)
20  CCn1c(SC(C)C(=O)c2c(C)n(C)n(-c3ccccc3)c2=O)nc2ccccc2c1=O (stereo not given)              GI50  > 100 µM (inactive)
